System name: T1, Aβ oligomers prepared from Amyloid β-protein, Human 1-42 peptide (human, UniProt P05067 672-713)
T1 construct: domain: Amyloid β-protein 1-42; Oligomeric preparation (HFIP, DMSO, acetic acid solution pH 4.5, overnight at 4 °C); Amine-coupled to a CM5 chip; also called amyloid β oligomer
T1 sequence (P05067 672-713 limits assumed): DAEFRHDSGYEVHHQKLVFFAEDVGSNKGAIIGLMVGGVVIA
Method summary: SPR (Biacore T100), Aβ oligomers amine-coupled to CM5 chip, antibody injected, Bivalent Analyte model (kd1)
Readout kind: koff

Q: koff lookup needed for anti-Aβ oligomer humanized antibody HV6LV3 (antibody, V domains shown) VH: DVQLVESGGGVVQPGRSLRLSCAASGFTFSSFGMHWVRQAPGKGLEWVAYISSGSSTIYYADTVKGRFTISRDNSRNTLFLQMNSLRGEDTAMYYCAGTGTRAYWGQGTLVTVSS VL: DVVMTQSPLSLPVTLGEPASISCRSSQSIVHSNGNTYLEWYLQKPGQSPKLLIYKVSNRFSGVPDRFSGSGSGTDFTLKISRVEAEDVGVYYCFQGSHVPPTFGQGTKLEIK , thanks.
Ans: 0.00092 s⁻¹

Q: Look up koff for this binder: anti-Aβ oligomer humanized antibody HV5aLV0 (antibody, V domains shown, also called HV5aVL0) VH: DVQLVESGGGVVQPGRSLRLSCAASGFTFSSFGMHWVRQAPGKGLEWVAYISSGSSTIYYADTVKGRFTISRDNSRSTLFLQMNSLRGEDTAMYYCAGTGTRAYWGQGTLVTVSS VL: DIVMTQSPLSLPVTPGEPASISCRSSQSIVHSNGNTYLEWYLQKPGQSPQLLIYKVSNRFSGVPDRFSGSGSGTDFTLKISRVEAEDVGVYYCFQGSHVPPTFGQGTKLEIK
Ans: 0.00063 s⁻¹

Q: I am curious: what koff value has been reported for anti-Aβ oligomer humanized antibody HV5aLV1b (antibody, V domains shown) VH: DVQLVESGGGVVQPGRSLRLSCAASGFTFSSFGMHWVRQAPGKGLEWVAYISSGSSTIYYADTVKGRFTISRDNSRSTLFLQMNSLRGEDTAMYYCAGTGTRAYWGQGTLVTVSS VL: DIVMTQSPLSLPVTLGEPASISCRSSQSIVHSNGNTYLEWYLQKPGQSPQLLIYKVSNRFSGVPDRFSGSGSGTDFTLKISRVEAEDVGVYYCFQGSHVPPTFGQGTKLEIK ?
Ans: 0.00088 s⁻¹

Note: attention shifts to another entry.
Q: Sample anti-Aβ oligomer humanized antibody HV0LV0 (antibody, V domains shown, purified on Prosep vA; also called HV0LVV0; 4H5HV0 + 4H5LV0) VH: DVQLVESGGGVVQPGRSLRLSCAASGFTFSSFGMHWVRQAPGKGLQWMVYISSGSSTIYYADTVKGRFTISRDNSRSTLFLQMNSLRGEDTAVYYCARTGTRAYWGQGTLVTVSS VL: DIVMTQSPLSLPVTPGEPASISCRSSQSIVHSNGNTYLEWYLQKPGQSPQLLIYKVSNRFSGVPDRFSGSGSGTDFTLKISRVEAEDVGVYYCFQGSHVPPTFGQGTKLEIK — what was its koff?
Ans: 0.0014 s⁻¹
